Values compiled from ChEMBL document CHEMBL1177882.

The following molecules each carry a recorded MIC for Actinomyces viscosus.
Express your answer in µg/mL, writing the number without its unit.

{"structure-smiles": "CCCOc1ccc(/C=C/[C@@](C)(/C=C/c2ccc(O)cc2)CCC=C(C)C)cc1Cl", "MIC / µg/mL": 32}
{"structure-smiles": "C=C[C@@](C)(/C=C/c1ccc(O)c([N+](=O)[O-])c1)CCC=C(C)C", "MIC / µg/mL": 128}
{"structure-smiles": "COc1ccccc1/C=C/[C@@](C)(/C=C/c1ccc(O)cc1)CCC=C(C)C", "MIC / µg/mL": 2}
{"structure-smiles": "C=C[C@@](C)(/C=C/c1ccc(OC(C)=O)cc1)CCC=C(C)C", "MIC / µg/mL": 32}
{"structure-smiles": "COc1ccc(/C=C/[C@@](C)(/C=C/c2ccc(O)cc2)CCC=C(C)C)cc1", "MIC / µg/mL": 2}

Short answer please: MIC, Actinomyces viscosus, entry `COc1ccc(/C=C/[C@@](C)(/C=C/c2ccc(O)cc2)CCC=C(C)C)cc1CO`
4

Record: `CC(C)=CCC[C@](C)(/C=C/c1ccc(O)cc1)/C=C/c1ccc(F)cc1`
4

Record: `C=C[C@@](C)(/C=C/c1ccc(O)cc1)CCC=C(C)C`
1

Record: `COc1ccc(/C=C/[C@](C)(/C=C/c2ccc(O)cc2)CCC=C(C)C)cc1`
0.5
